Please consider the recorded pIC50 for hAChE (Homo sapiens) in what follows.
Friendly reminder that pIC50 comes from taking -log10 of the concentration in mol/L.

COc1ccccc1C=NNC(=O)CC1=C(C)C(=Cc2ccc([S+](C)[O-])cc2)c2ccc(F)cc21 (stereo in doubt) [SD-31] : 3.13
CC1=C(CC(=O)NN=Cc2cccc(O)c2O)c2cc(F)ccc2/C1=C\c1ccc([S+](C)[O-])cc1 (stereo not drawn) [SD-42] : 4.03
CC1=C(CC(=O)NN=Cc2ccc(O)cc2)c2cc(F)ccc2C1=Cc1ccc([S+](C)[O-])cc1 (stereo in doubt) [SD-30] : 4.86

Query: // lookup pIC50 | system=hAChE (Homo sapiens) | key= CC1=C(CC(=O)NN=Cc2cccc(O)c2)c2cc(F)ccc2C1=Cc1ccc([S+](C)[O-])cc1 (stereo in doubt) [SD-24]
Response: 4.39

Query: Entry to check: CC1=C(CC(=O)NN=Cc2c(O)cccc2O)c2cc(F)ccc2/C1=C\c1ccc([S+](C)[O-])cc1 (stereo not drawn) [SD-40]
Response: 3.96

----------
assayed_target: hBuChE (Homo sapiens)
Construct: PTCh (derived from human plasma)
measurement_protocol: biochemical
particulars: Ellman method, triplicate, three independent runs; read-out: IC50 ± SE hBuChE
Experimental: Enzyme activities were determined using the Ellman spectrophotometric method. […] In initial state, ATCh (derived from human erythrocytes) and PTCh (derived from human plasma) were dissolved in water and DTNB in 0.1 M sodium phosphate buffer (pH 7.4). […] The IC50 values were calculated using absorbance obtained from the test and standard compounds. […]
endpoint_label: pIC50
Field pIC50 (float): negative decimal logarithm of the concentration in molar.

A selection of reference data follows.
CC1=C(CC(=O)NN=Cc2cccc(O)c2)c2cc(F)ccc2C1=Cc1ccc([S+](C)[O-])cc1 (stereo in doubt) : 4.03
CC1=C(CC(=O)NN=Cc2cccc(O)c2O)c2cc(F)ccc2/C1=C\c1ccc([S+](C)[O-])cc1 (stereo not drawn) : 3.58
CC1=C(CC(=O)NN=Cc2ccc(O)cc2)c2cc(F)ccc2C1=Cc1ccc([S+](C)[O-])cc1 (stereo in doubt) : 4.31

Kindly consider the entry below.
Query: Param readout = pIC50; param system = hBuChE (Homo sapiens); param query = CC1=C(CC(=O)NN=Cc2c(O)cccc2O)c2cc(F)ccc2/C1=C\c1ccc([S+](C)[O-])cc1 (stereo not drawn) ; response: value
Response: 3.54
